Measured values drawn from patent US20240293588A1 for this set.

- ASSAYED_SYSTEM: T1, HER2 (human epidermal growth factor receptor 2) on cells (human, UniProt P04626 23-1255)
- T1 construct: whole, on cells; also called ERBB2; HER2 receptor
- TEST_METHOD_NOTES: flow cytometry (Cy5), BT-474 cells, 1 h, conjugate at 6 mM (so in the source)
ENDPOINT_NAME: MFI
Lab note: record the figure alone, no unit after it.

// query MFI value for entry [(ε-NHCO-PEG1100)16(α-NHCy5)1(α-NHDOTA)8(α-NH2)7][Lys]16[Lys]8[Lys]4[Lys]2[Lys]-CONH-CH2-CH2-S-(Me)MAL-PEG24-CONH-Bn-Tz(Me)/TCO-NHCO-PEG24-(MAL)Me/Cys-Nanobody … (VHH, the additional cysteine (in …) coupled to the methylmaleimide of linker SRS-12 (intermediate SRS-14), whose TCO is joined to the tetrazine of dendron RP-5 (1 Cy5, 8 DOTA, 16 PEG1100)) VHH: EVQLVESGGSLVQPGGSLRLSCAASGFTFDDYAMSWVRQVPGKGLEWVSSINWSGTHTDYADSVKGRFTISRNNANNTLYLQMNSLKSEDTAVYYCAKNWRDAGTTWFEKSGSAGQGTQVTVSS
732

Would you mind telling me what MFI value was observed for [[(ε-NHCO-PEG1100)8(α-NHDOTA)4.75(α-NHCy5)0.5(α-NH2)2.75][Lys]8[Lys]4[Lys]2[Lys]-CONH-CH2-CH2-S-]2MAL-PEG3-NHCO-PEG24-CONH-PEG4-(PhTzMe)/TCO-NHCO-PEG24-(MAL)Me/ … (VHH, the additional cysteine (in …) coupled to the methylmaleimide of linker SRS-12 (intermediate SRS-14), whose TCO is joined to the tetrazine of dendrimer SRS-4-Mal (maleimide core, Cy5, DOTA, PEG1100)) VHH: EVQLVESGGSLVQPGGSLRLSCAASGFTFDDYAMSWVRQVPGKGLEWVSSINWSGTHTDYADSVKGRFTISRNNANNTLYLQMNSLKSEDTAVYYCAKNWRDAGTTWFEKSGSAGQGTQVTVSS ?
1460

# input binder: [(ε-NHCO-PEG1100)16(α-DOTA)7(α-NHCy5)1(α-NH2)8][Lys]16[Lys]8[Lys]4[Lys]2[Lys]-(PN)NCO-PEG24-CONH-PEG4-(PhTzMe)/TCO-PEG3-NHCO-PEG24-Glu-DBCO/N3-Nanobody SRS-22 (VHH, # (unnatural amino acid, p-azido-phenylalanine, after ...QVTVSS) clicked to the DBCO of SRS-22a (linker Compound 51 on dendrimer HH-2: 1 Cy5, 7 DOTA, 16 PEG1100)) VHH: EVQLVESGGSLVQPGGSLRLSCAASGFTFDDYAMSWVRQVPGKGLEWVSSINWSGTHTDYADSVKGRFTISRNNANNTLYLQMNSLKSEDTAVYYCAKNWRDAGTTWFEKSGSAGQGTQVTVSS ; wanted: its MFI
4910

Which value of MFI has been reported for BHALys[Lys]2[Lys]4[Lys]8[Lys]16[((α-NH-COPEG24NH-COPEG4(PhTzMe)/TCO-PEG3-NHCO-PEG24-(MAL)Me/Cys-Nanobody)1(α-NHCy5)1(α-NHDOTA))10(α-NH2)4)(ε-NH-COPEG1000)16] … (VHH, the additional cysteine (in …) coupled to the methylmaleimide of SRS-21a (linker SRS-12 on G4 dendrimer SRS-1: 1 Cy5, 10 DOTA, 16 PEG1000)) VHH: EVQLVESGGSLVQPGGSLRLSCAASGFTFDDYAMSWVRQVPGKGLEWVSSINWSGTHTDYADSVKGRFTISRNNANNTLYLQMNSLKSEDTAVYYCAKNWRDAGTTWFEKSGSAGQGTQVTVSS in the records?
4640
